System: low-resistant to hypoxia animals
Test: Acute hypobaric anoxia in combination with hypercapnia (lifting to 11,500 m): lifetime, loss of pose time, restitution time, stability factor
Format: in vivo
Conditions: 100 mg/kg intravenously 15 minutes prior to the experiment
Each entry below carries its reported Duration.

{"columns": ["Compound", "Output Unit", "Duration"],
 "data": [
  ["O=C(O)CCC(=O)O [succinic acid]", "s", 747],
  ["OC[C@H]1O[C@@H](n2cnc3c(O)ncnc32)[C@H](O)[C@@H]1O [inosine]", "s", 754],
  ["O=C([O-])CCCO.[Li+] [Lithium oxybutyrate]", "s", 1345],
  ["CCc1nc(C)ccc1O.O=C(O)CCC(=O)O [3-oxy-3-methyl-6-oxypyridine succinate]", "s", 707],
  ["NC(=S)N=C(N)N [hutimine]", "s", 986]
]}
